Where these numbers come from: patent US20240358755A1

molecular target: T1, HLA-B*07:02 (human); experiment: UV peptide exchange, anti-b2m ELISA; exchange yield grade
T1 construct: Peptide-receptive monomer in the UV-ligand exchange assay
# peptide exchange yield listing for each entry below
measurement-type: peptide exchange yield

> print(dat)
          binder        measurement.type  obs.value
 1      TPLTRTTL  peptide exchange yield  50 to 75%
 2     YVGPTRLEL  peptide exchange yield      ≥ 75%
 3     MPCTTILRI  peptide exchange yield      ≥ 75%
 4     APLLPGPAA  peptide exchange yield      ≥ 75%
 5    RPSPVRVAAL  peptide exchange yield      ≥ 75%
 6     ASRIQVILL  peptide exchange yield  50 to 75%
 7     SLRVPSPAL  peptide exchange yield  50 to 75%
 8     IPISIFKMA  peptide exchange yield  50 to 75%
 9     VVHGGMSIF  peptide exchange yield  20 to 50%
10     LPHPVNSGL  peptide exchange yield  50 to 75%
11  HPRESLNMLVAF  peptide exchange yield      ≥ 75%
12     APLRAGWAA  peptide exchange yield      ≥ 75%
